target: Env of HIV-1 strain PVO.4 (HIV-1); assay: cell-based or functional assay
binders and their reported neutralization IC50

γ59κ18 (antibody, V domains shown) VH: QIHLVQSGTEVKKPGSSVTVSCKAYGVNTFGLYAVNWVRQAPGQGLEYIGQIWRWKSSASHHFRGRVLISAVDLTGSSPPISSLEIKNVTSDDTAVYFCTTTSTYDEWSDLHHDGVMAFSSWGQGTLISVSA VL: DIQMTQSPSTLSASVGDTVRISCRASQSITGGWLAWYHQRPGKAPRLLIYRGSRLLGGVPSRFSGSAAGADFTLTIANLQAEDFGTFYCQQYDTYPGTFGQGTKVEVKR | > 15 µg/mL

API: the following record is the query input.
Any idea what neutralization IC50 was measured for γ59κ61 (antibody, V domains shown) VH: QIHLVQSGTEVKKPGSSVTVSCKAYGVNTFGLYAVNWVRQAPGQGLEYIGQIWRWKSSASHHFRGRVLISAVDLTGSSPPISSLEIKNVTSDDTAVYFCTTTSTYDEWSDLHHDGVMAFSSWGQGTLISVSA VL: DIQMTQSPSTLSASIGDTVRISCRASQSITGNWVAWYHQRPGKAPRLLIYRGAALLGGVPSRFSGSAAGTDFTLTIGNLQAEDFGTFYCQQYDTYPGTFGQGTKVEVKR ?
> 15 µg/mL
